Overview of reported MIC across a group of compounds:
# System: Salmonella enterica serovar Typhimurium SL1344
# TEST_SETTINGS: LPM pH 5.8
Where a name gives a salt, the structure may show the parent alone.
State just the number; it will be interpreted in µM.

COMPOUND	SYSTEM_UNDER_TEST	EXPERIMENTAL_ENDPOINT	OBSERVED_RESULT
CO[C@H]1/C=C/O[C@@]2(C)Oc3c(C)c(O)c4c(O)c(c(/C=N/N5CCN(C)CC5)c(O)c4c3C2=O)NC(=O)/C(C)=C\C=C\[C@H](C)[C@H](O)[C@@H](C)[C@@H](O)[C@@H](C)[C@H](OC(C)=O)[C@@H]1C [RIFAMPIN]	Salmonella enterica serovar Typhimurium SL1344	MIC	3.13
C[C@@H](O)[C@H]1C(=O)N2C(C(=O)O)=C(S[C@@H]3CN[C@H](C(=O)N(C)C)C3)[C@H](C)[C@H]12 [MEROPENEM]	Salmonella enterica serovar Typhimurium SL1344	MIC	3.13
COc1ccc(Cc2cnc(N)nc2N)cc1OC [DIAVERIDINE]	Salmonella enterica serovar Typhimurium SL1344	MIC	50
CCn1cc(C(=O)O)c(=O)c2cc(F)c(N3CCNCC3)nc21 [ENOXACIN]	Salmonella enterica serovar Typhimurium SL1344	MIC	6.25
CO/N=C(\C(=O)N[C@@H]1C(=O)N2C(C(=O)O)=C(CSc3nnnn3C)CS[C@H]12)c1csc(N)n1 [CEFMENOXIME HYDROCHLORIDE]	Salmonella enterica serovar Typhimurium SL1344	MIC	1.17

# return recorded MIC for entry O=C1OCCN1/N=C/c1ccc([N+](=O)[O-])o1 [FURAZOLIDONE]
6.25

# return recorded MIC for entry O=C(O)CCC(=O)OC[C@@H](NC(=O)C(Cl)Cl)[C@H](O)c1ccc([N+](=O)[O-])cc1 [CHLORAMPHENICOL SODIUM SUCCINATE]
6.25

# return recorded MIC for entry CO[C@H]1/C=C/O[C@@]2(C)Oc3c(C)c(O)c4c(O)c(c5c(nc6cc(C)ccn65)c4c3C2=O)NC(=O)/C(C)=C\C=C\[C@H](C)[C@H](O)[C@@H](C)[C@@H](O)[C@@H](C)[C@H](OC(C)=O)[C@@H]1C [RIFAXIMIN]
6.25
